assayNotes: Resistance factor of compound was determined from cisplatin resistant A2780 cell lines to that of A2780 cell lines
Format: functional
parameterMeasured: Resistance factor
// return just the number, without any unit appended

Reference set, count: 5
Answer with the recorded Resistance factor for the molecule listed here: C/C=C1/C[C@H]2C=Nc3cc(OC)c(OC)cc3C(=O)N2C1
1.9

Answer with the recorded Resistance factor for the molecule listed here: C=C1C[C@H]2C=Nc3cc(OCc4ccccc4)c(OC)cc3C(=O)N2C1
6.9

Answer with the recorded Resistance factor for the molecule listed here: COc1cc2c(cc1OCc1ccccc1)N=C[C@@H]1CCCN1C2=O
2.8

Answer with the recorded Resistance factor for the molecule listed here: C=C1C[C@H]2C=Nc3cc(OC)c(OC)cc3C(=O)N2C1
2.4

Answer with the recorded Resistance factor for the molecule listed here: C/C=C1/C[C@H]2C=Nc3cc(OCc4ccccc4)c(OC)cc3C(=O)N2C1
1.9

Kindly consider the entry below.
Answer with the recorded Resistance factor for the molecule listed here: COc1cc2c(cc1OC)C(=O)N1CCC[C@H]1C=N2
2.4

----------
System: SK-OV-3
assayNotes: In vitro cytotoxicity of compound was determined against SKOV-3 cell lines at 37 degree C for 96 hr
Assay type: functional, Homo sapiens
The following compounds are listed with their measured Cytotoxicity values.
Hi! Could you send only the number? It should be in µM, unit omitted.

Reference set, count: 3
Answer with the recorded Cytotoxicity for the compound listed here: COc1cc2c(cc1OCc1ccccc1)N=C[C@@H]1CCCN1C2=O
0.46

Answer with the recorded Cytotoxicity for the compound listed here: COc1cc2c(cc1OC)C(=O)N1CCC[C@H]1C=N2
1.7

Answer with the recorded Cytotoxicity for the compound listed here: C/C=C1/C[C@H]2C=Nc3cc(OC)c(OC)cc3C(=O)N2C1
0.135

Next:
Answer with the recorded Cytotoxicity for the compound listed here: C/C=C1/C[C@H]2C=Nc3cc(OCc4ccccc4)c(OC)cc3C(=O)N2C1
0.081

Answer with the recorded Cytotoxicity for the compound listed here: C=C1C[C@H]2C=Nc3cc(OC)c(OC)cc3C(=O)N2C1
0.39

Answer with the recorded Cytotoxicity for the compound listed here: C=C1C[C@H]2C=Nc3cc(OCc4ccccc4)c(OC)cc3C(=O)N2C1
0.35
